Below, each entry is listed alongside its reported melting point.

Compound | melting point
Cc1nc(-c2ccc(Cl)cc2)n(-c2ccc(S(N)(=O)=O)cn2)n1 | 215 to 217 °C
CCC(COC)NC(=O)C(Cc1ccc(OCc2ccccc2)cc1)NC(=O)C(CC(C)C)N(C)CCC(C)C (stereo not given) | 83 to 85 °C
COC(=O)NC12CC=CCC1CSc1ccccc12 (stereo not given) | 150 to 152 °C
Clc1nnc(Cl)c2c1CCCC2 | 148 to 150 °C
O=C(Nc1cccnn1)N1CCN(c2cc(-c3ccccc3F)ncn2)CC1 | 207 to 208 °C

###

Below, each entry is listed alongside its reported melting point.
Measured Endpoint: melting point

Compound | Measured Endpoint | Observed Value
Cc1oc2c(-n3c(=O)cc(C(F)(F)F)n(C)c3=O)ccc(Cl)c2c1NO | melting point | 134 to 136 °C
Cn1cc(C(=O)NCc2ccc(Cl)cc2)c(=O)c2cc(CN=[N+]=[N-])ccc21 | melting point | 219 to 220 °C
c1cnc(C2CC(c3cnccn3)CC(c3cnccn3)C2)cn1 (centres undefined) | melting point | 122 to 124 °C
CC[C@H](COC)n1cc(Cl)nc(N2CCc3cc(OC)cc(Br)c32)c1=O | melting point | 100 to 102 °C
CCN1C(=O)C(C)(C)C(=O)N(C)c2cc(CN(CCn3ccc4oc(C)cc4c3=O)Cc3ccc(C=O)cc3)ccc21 | melting point | 153 to 155 °C
CCS(=O)(=O)Nc1cc2occc(=O)c2cc1Oc1ccccc1 | melting point | 216 to 218 °C
COC(=O)C1=C(C)NC(=S)N(C(=O)OC)C1c1cccc([N+](=O)[O-])c1 (centres undefined) | melting point | 172 to 173 °C
CC1CC(O)=CC2=CCC3C4CCC(O)C4(C)CCC3C21C (centres undefined) | melting point | 111 to 112 °C
O=C(Nc1cccc2c(=O)cc(-c3nnn[nH]3)oc12)c1ccc2c(c1)CCC(COCc1ccccc1)O2 (centres undefined) | melting point | 214 to 216 °C

Source: a melting point compilation (Tetko et al.; mined from patent text by program, amines drawn as free bases though some values may be those of a salt)
